Reference source for all entries: ChEMBL document CHEMBL2029301

Activity reference
System Tested: Human immunodeficiency virus type 1 reverse transcriptase (Human immunodeficiency virus 1)
Experimental Protocol: Inhibition of HIV1 reverse transcriptase RNase H activity assessed as remaining activity at 100 uM
Kindly provide the numeric value in % only, without the unit symbol.

Any idea what its Activity is? The molecule is O=c1[nH]c2ccccc2cc1O
97

Any idea what its Activity is? The molecule is CCOC(=O)c1c(O)c(=O)[nH]c2ccc(F)cc12
100

Any idea what its Activity is? The molecule is O=C(O)c1c(O)c(=O)[nH]c2c(F)cccc12
88

----------
CC50 reference
Experimental Protocol: Cytotoxicity against human MT4 cells
Type: cell-based
Kindly provide the numeric value in µM only, without the unit symbol.

Compound String	Reported Result
O=C(NCc1ccc(F)cc1)c1c(O)c(=O)[nH]c2ccc(F)cc12	24
CCOC(=O)c1c(O)c(O)nc2ccccc12	210
O=C(NCc1ccc(F)cc1)c1c(O)c(=O)[nH]c2c(F)cccc12	8
O=C(O)c1c(O)c(=O)[nH]c2ccc(F)cc12	250

Any idea what its CC50 is? The compound is COc1ccc(CNC(=O)c2c(O)c(=O)[nH]c3c(F)cccc23)cc1
8

Any idea what its CC50 is? The compound is CCOC(=O)c1c(O)c(=O)[nH]c2ccc([N+](=O)[O-])cc12
118

Any idea what its CC50 is? The compound is CCCCCCNC(=O)c1c(O)c(=O)[nH]c2c(F)cccc12
22

Any idea what its CC50 is? The compound is COc1ccc(CNC(=O)c2c(O)c(=O)[nH]c3ccc(F)cc23)cc1
29

Any idea what its CC50 is? The compound is CCOC(=O)c1c(O)c(=O)[nH]c2ccc(F)cc12
134

Any idea what its CC50 is? The compound is O=C(NCc1ccc(F)cc1)c1c(O)c(=O)[nH]c2ccc(Cl)cc12
28

Any idea what its CC50 is? The compound is CCOC(=O)c1c(O)c(=O)[nH]c2ccc(Cl)cc12
117

----------
System Tested: Human immunodeficiency virus type 1 reverse transcriptase (Human immunodeficiency virus 1, UniProt Q72547)
Experimental Protocol: Inhibition of HIV1 reverse transcriptase RNase H activity
Property Name: IC50 (µM)
Kindly provide the numeric value in µM only, without the unit symbol.

Take a look at these entries with their results.
Compound String	IC50 (µM)
O=C(NCc1ccc(F)cc1)c1c(O)c(=O)[nH]c2c(F)cccc12	75
O=C(NCc1ccc(F)cc1)c1c(O)c(=O)[nH]c2ccc(F)cc12	22
O=C(NCc1ccc(F)cc1)c1c(O)c(=O)[nH]c2ccccc12	19
CCOC(=O)c1c(O)c(=O)[nH]c2ccc([N+](=O)[O-])cc12	64
O=C(NCc1ccc(F)cc1)c1c(O)c(=O)[nH]c2ccc(Cl)cc12	18
COc1ccc(CNC(=O)c2c(O)c(=O)[nH]c3c(F)cccc23)cc1	74
COc1ccc(CNC(=O)c2c(O)c(=O)[nH]c3ccc(F)cc23)cc1	19
CCOC(=O)c1c(O)c(O)nc2ccccc12	16

Any idea what its IC50 is? The molecule is CCCCCCNC(=O)c1c(O)c(=O)[nH]c2c(F)cccc12
49

Any idea what its IC50 is? The molecule is O=C(O)c1c(O)c(O)nc2ccccc12
59

Any idea what its IC50 is? The molecule is O=C(O)c1c(O)c(=O)[nH]c2ccc([N+](=O)[O-])cc12
97
